Molecular target: human α4β7 integrin on cells (human) (UniProt P13612)
Assay: RPMI8866 adhesion to MAdCAM-1
pIC50: −log10 of the molar value. Bridge positions count the residues as written; N and C are the ends. Square brackets hold non-standard residues; d marks the D form. Ends that are not written are not given here. 1Nal = N[C@@H](Cc1cccc2ccccc12)C(=O)O; 2Nal = N[C@@H](Cc1ccc2ccccc2c1)C(=O)O; NMeR = CN[C@@H](CCCNC(=N)N)C(=O)O; Tic = O=C(O)[C@@H]1Cc2ccccc2CN1; β3hE = N[C@@H](CCC(=O)O)CC(=O)O; NMeK = CN[C@@H](CCCCN)C(=O)O; Pen = CC(C)(S)[C@H](N)C(=O)O; Dab = NCC[C@H](N)C(=O)O
Quantity Kind: pIC50

# example entries with known answers
[[record]]
binder = "Ac-[Pen][NMeR]SDTL[Pen][Tic][dE][dK]-NH2 (disulfide 1-7; also: dimer (monomer)2-DIG, DIG attachment place not given here) [SEQ ID NO: 80]"
assay_value = "< 7.30"

[[record]]
binder = "Ac-[Pen][NMeR]SDTL[Pen][2Nal][β3hE][dK]-NH2 (disulfide 1-7 (inferred); also: homodimer via DIG) [SEQ ID NO: 137]"
assay_value = "> 8.00"

[[record]]
binder = "Ac-[Pen][NMeR]SDTL[Pen][2Nal][β3hE]-NH2 (disulfide 1-7 (inferred)) [SEQ ID NO: 155]"
assay_value = "< 7.60"

[[record]]
binder = "Ac-[Pen][NMeR]SDTL[Pen][2Nal]E[NMeK]-NH2 (disulfide 1-7 (inferred); also: homodimer via DIG) [SEQ ID NO: 138]"
assay_value = "< 8.00"

[[record]]
binder = "Ac-[Pen][NMeR]SDTL[Pen][1Nal][dR][dK]-NH2 (disulfide 1-7 (inferred); also: homodimer via DIG) [SEQ ID NO: 114]"
assay_value = "< 7.00"

[[record]]
binder = "Ac-[Pen][NMeR]SDTL[Pen][1Nal][dF][dK]-NH2 (disulfide 1-7; also: dimer via DIG, attachment site not given here) [SEQ ID NO: 111]"
assay_value = "< 7.00"


// recorded pIC50 for Ac-[Pen][NMeR]SDTL[Pen][2Nal][dE][dK]-NH2 (disulfide 1-7; SMILES CC(=O)N[C@@H]1C(=O)N(C)[C@@H](CCCNC(=N)N)C(=O)N[C@@H](CO)C(=O)N[C@@H](CC(=O)O)C(=O)N[C@@H]([C@@H](C)O)C(=O)N[C@@H](CC(C)C)C(=O)N[C@H](C(=O)N[C@@H](Cc2ccc3ccccc3c2)C(=O)N[C@H](CCC(=O)O)C(=O)N[C@H](CCCCN)C(N)=O)C(C)(C)SSC1(C)C) [SEQ ID NO: 9] : < 7.00

// recorded pIC50 for Ac-[Pen][NMeR]SDTL[Pen][2Nal][dL][dK]-NH2 (disulfide 1-7 (inferred); also: homodimer via DIG) [SEQ ID NO: 119] : < 6.30

// recorded pIC50 for Ac-[Pen][NMeR]SDTL[Pen]WE[Dab] (disulfide 1-7; also: C-terminus written Dab-Ac, acetyl place unclear) [SEQ ID NO: 62] : < 6.00
